Values compiled from paper PMC5614548.

experimental.target: Fno (F420H2:NADP+ oxidoreductase) (Archaeoglobus fulgidus, UniProt O29370, I135A)
Sequence (O29370 whole entry I135A, one chain of several): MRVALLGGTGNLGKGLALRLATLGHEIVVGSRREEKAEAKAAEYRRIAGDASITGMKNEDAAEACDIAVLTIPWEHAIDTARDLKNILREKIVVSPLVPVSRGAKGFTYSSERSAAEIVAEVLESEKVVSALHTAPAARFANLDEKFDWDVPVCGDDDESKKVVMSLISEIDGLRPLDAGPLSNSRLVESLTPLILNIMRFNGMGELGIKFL
experiment: tryptophan fluorescence titration, fit with Hill coefficient
Assay type: binding
test.context: read-out: Kd^FO
From the text: tryptophan fluorescence titration, fit with Hill coefficient on Fno (F420H2:NADP+ oxidoreductase)
measure.name: Kd (nM)
Please respond with the number in nM and leave the unit unwritten.

Note to self: Kd recorded for O=c1nc2n(C[C@H](O)[C@H](O)[C@H](O)CO)c3cc(O)ccc3cc-2c(=O)[nH]1 was 5.6

----------
experimental.target: Fno (F420H2:NADP+ oxidoreductase) (Archaeoglobus fulgidus, UniProt O29370, I135V)
Sequence (O29370 whole entry I135V, one chain of several): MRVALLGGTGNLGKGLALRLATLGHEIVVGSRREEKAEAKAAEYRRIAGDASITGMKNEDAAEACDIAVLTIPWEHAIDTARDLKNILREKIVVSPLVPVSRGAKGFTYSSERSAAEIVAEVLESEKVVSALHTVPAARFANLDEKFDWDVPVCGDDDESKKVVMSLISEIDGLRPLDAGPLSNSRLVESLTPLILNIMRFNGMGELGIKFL
experiment: tryptophan fluorescence titration, fit with Hill coefficient
Type: binding
test.context: read-out: Kd^FO
measure.name: pKd
pKd here is simply -log10 of the concentration when that concentration is written in mol/L.

Note to self: pKd recorded for O=c1nc2n(C[C@H](O)[C@H](O)[C@H](O)CO)c3cc(O)ccc3cc-2c(=O)[nH]1 was 8.12
